Numbers sourced from patent US6525001B1.

- Tested on: giant foxtail (Setaria faberii)
- EXPERIMENT: Test B pre-/postemergence
- Type: in vivo
- PARTICULARS: Rate 62 g/ha, Postemergence
The following molecules are listed with their measured Giant foxtail plant response rating values.
READOUT LABEL: Giant foxtail plant response rating

> print(dat)
                  compound.structure.string  reported
1  Cc1cnc(-n2ccc(C(F)(F)C(F)(F)F)n2)nc1C(=O)c1cccc(C(F)(F)F)c1         1
2  O=C(c1cccc(C(F)(F)F)c1)c1ccnc(-c2ccc(F)cc2F)n1         0
3  Cc1cnc(-n2ccc(C(F)(F)C(F)(F)F)n2)nc1C(=O)c1cccc(OC(F)(F)F)c1         1
4  Cc1cnc(-n2cnc(C(F)(F)F)c2)nc1C(=O)c1cccc(C(F)(F)F)c1         2

====

The following compounds are listed with their measured Morningglory plant response rating values.
- System: momingglory (Ipomoea hederacea)
- EXPERIMENT: Test B pre-/postemergence
- Assay type: in vivo
- Design: key: 0 is no effect; 10 is complete control
- PARTICULARS: Rate 62 g/ha, Preemergence
READOUT LABEL: Morningglory plant response rating

> print(dat)
                                   compound                           target  reported
1  COC(c1cccc(C(F)(F)F)c1)c1nc(-c2ccc(C(F)(F)F)cc2)ncc1C (racemic) [Compound 20]  momingglory (Ipomoea hederacea)         0
2  COc1cnc(-c2ccc(C(F)(F)F)cc2)nc1Cc1cccc(C(F)(F)F)c1 [Compound 23]  momingglory (Ipomoea hederacea)         4
3  Cc1cnc(-c2ccc(OC(F)(F)F)cc2)nc1Cc1cccc(C(F)(F)F)c1 [Compound 16]  momingglory (Ipomoea hederacea)         0
4  Cc1cnc(-c2ccc(C(F)(F)F)cc2)nc1Cn1cnc(C(F)(F)F)n1 [Compound 11]  momingglory (Ipomoea hederacea)         3
5  Cc1cnc(-c2ccc(Cl)cc2)nc1Cc1cccc(C#N)c1 [Compound 33]  momingglory (Ipomoea hederacea)         0
6  CCc1cnc(-n2ccc(C(F)(F)F)n2)nc1Cc1cccc(C(F)(F)F)c1 [Compound 46]  momingglory (Ipomoea hederacea)        10
7  CCc1cnc(-n2cnc(C(F)(F)F)n2)nc1Cc1cccc(OC(F)(F)F)c1 [Compound 50]  momingglory (Ipomoea hederacea)         1
8  Cc1cnc(-c2ccc(Cl)cc2)nc1Cn1ccc(C(F)(F)F)n1 [Compound 6]  momingglory (Ipomoea hederacea)         1

====

- Tested on: corn (Zea mays)
- EXPERIMENT: Test B pre-/postemergence
- Assay type: in vivo
- PARTICULARS: Rate 250 g/ha, Postemergence
READOUT LABEL: Plant response rating, Corn

> print(dat)
                   compound.structure.string  reported
 1  Cc1cnc(-c2ccc(Cl)cc2)nc1Cn1ccc(C(F)(F)F)n1         3
 2  Cc1cnc(-c2ccc(Cl)c(Cl)c2)nc1Cc1cccc(C#N)c1         1
 3   Cc1cnc(-c2ccc(Cl)cc2F)nc1Cc1cccc(C#N)c1         1
 4  CCc1cnc(-n2cnc(C(F)(F)F)n2)nc1Cc1cccc(OC(F)(F)F)c1         2
 5  Cc1cnc(-c2cccc(C(F)(F)F)c2)nc1Cc1cccc(C#N)c1         1
 6  Cc1cnc(-c2ccc(Cl)cc2F)nc1Cc1cccc(C(F)(F)F)c1         3
 7  Cc1cnc(-n2cnc(C(F)(F)F)n2)nc1C(=O)c1cccc(C(F)(F)F)c1         6
 8  Cc1cnc(-n2ccc(C(F)(F)F)n2)nc1C(=O)c1cccc(C(F)(F)F)c1         3
 9  Cc1cnc(-n2ccc(C(F)(F)F)n2)nc1Cn1ccc(C(F)(F)F)n1         6
10  Cc1cnc(-n2cnc(C(F)(F)F)n2)nc1Cn1ccc(C(F)(F)F)n1         9
11  COc1cnc(-n2ccc(C(F)(F)F)n2)nc1C(=O)c1cccc(C(F)(F)F)c1         3
12  Cc1cnc(-c2ccc(C(F)(F)F)cc2)nc1Cc1cccc(C#N)c1         1
13  Cc1cnc(-n2ccc(C(F)(F)C(F)(F)F)n2)nc1C(=O)c1cccc(OC(F)(F)F)c1         2
14  Cc1cnc(-c2ccc(C(F)(F)F)cc2)nc1C(=O)c1cccc(OC(F)(F)F)c1         3
15  Cc1cnc(-n2ccc(C(F)(F)F)n2)nc1Cc1cccc(C(F)(F)F)c1         6
16  COc1cnc(-c2ccc(C(F)(F)F)cc2)nc1Cc1cccc(C(F)(F)F)c1         3
17   Cc1cnc(-c2ccc(C#N)cc2)nc1Cc1cccc(C#N)c1         1
18  Cc1cnc(-n2ccc(C(F)(F)F)n2)nc1Cc1cccc(OC(F)(F)F)c1         8

====

- System: wild oat (Avena fatua)
- EXPERIMENT: Test B pre-/postemergence
- Type: in vivo
- PARTICULARS: Rate 250 g/ha, Preemergence
The following compounds are listed with their measured Plant response rating, Wild oats values.
READOUT LABEL: Plant response rating, Wild oats

> print(dat)
                                   compound                     readout.label  reported
1  Cc1cnc(-n2cnc(C(F)(F)F)c2)nc1C(=O)c1cccc(OC(F)(F)F)c1 [Compound 63]  Plant response rating, Wild oats         5
2  O=C(c1cccc(C(F)(F)F)c1)c1ccnc(-n2ccc(C(F)(F)F)n2)n1 [Compound 70]  Plant response rating, Wild oats         0
3  Cc1cnc(-c2ccc(OC(F)(F)F)cc2)nc1Cc1cccc(C(F)(F)F)c1 [Compound 16]  Plant response rating, Wild oats         2
4  Cc1cnc(-n2ccc(C(F)(F)F)n2)nc1C(=O)c1cccc(C(F)(F)F)c1 [Compound 59]  Plant response rating, Wild oats         9

====

The following compounds are listed with their measured Barnyardgrass plant response rating values.
- Tested on: bamyardgrass (Echinochloa crus-galli)
- EXPERIMENT: Test B flood test
- Format: in vivo
- PARTICULARS: Rate 62 g/ha, Postemergence (flood test)
READOUT LABEL: Barnyardgrass plant response rating

> print(dat)
                                   compound  reported
1  CCc1cnc(-n2ccc(C(F)(F)F)n2)nc1C(=O)c1cccc(C#N)c1 [Compound 72]         2
2  CCc1cnc(-n2ccc(C(F)(F)F)n2)nc1C(=O)c1cccc(C(F)(F)F)c1 [Compound 69]         1
3  Cc1cnc(-c2ccc(C(F)(F)F)cc2)nc1Cn1cc(Br)cn1 [Compound 54]         2
4  O=C(c1cccc(C(F)(F)F)c1)c1ccnc(-c2ccc(C(F)(F)F)cc2)n1 [Compound 77]         0
5  Cc1cnc(-n2ccc(C(F)(F)F)n2)nc1C(=O)c1cccc(OC(F)(F)F)c1 [Compound 66]         3

====

- System: broadleaf signalgrass (Brachiaria decumbens)
- EXPERIMENT: Test B pre-/postemergence
- Format: in vivo
- PARTICULARS: Rate 62 g/ha, Postemergence
- Description: […] At the same time, these crop and weed species were also treated with postemergence applications of test chemicals formulated in the same manner. […] Treated plants and controls were maintained in a greenhouse for twelve to sixteen days, after which all species were compared to controls and visually evaluated. […]
READOUT LABEL: B. signalgrass plant response rating

> print(dat)
                                   molecule                         readout.label  reported
1  Cc1cnc(-c2ccc(C(F)(F)F)cc2)nc1Cn1cc(Br)cn1 [Compound 54]  B. signalgrass plant response rating         3
2  Cc1cnc(-n2ccc(C(F)(F)C(F)(F)F)n2)nc1C(=O)c1cccc(C(F)(F)F)c1 [Compound 68]  B. signalgrass plant response rating         2
3  COc1cnc(-n2ccc(C(F)(F)F)n2)nc1C(=O)c1cccc(C(F)(F)F)c1 [Compound 60]  B. signalgrass plant response rating         2
4  Cc1cnc(-n2cnc(C(F)(F)F)c2)nc1C(=O)c1cccc(C(F)(F)F)c1 [Compound 61]  B. signalgrass plant response rating         3

====

- Test system: wild oat (Avena fatua)
- EXPERIMENT: Test B pre-/postemergence
- Type: in vivo
- PARTICULARS: Rate 500 g/ha, Postemergence
- Method: […] At the same time, these crop and weed species were also treated with postemergence applications of test chemicals formulated in the same manner. […] Treated plants and controls were maintained in a greenhouse for twelve to sixteen days, after which all species were compared to controls and visually evaluated. […]
Would you please tag the item class 1 when its Plant response rating, Wild oats is 5 or above, and class 0 when it is below?

> print(dat)
                  compound.structure.string      cat
1  Cc1cnc(-c2ccc(C(F)(F)F)cc2)nc1C(=O)c1cccc(C(F)(F)F)c1  class 1
2  Cc1cnc(-n2ccc(C(F)(F)C(F)(F)F)n2)nc1C(=O)c1cccc(C(F)(F)F)c1  class 0
3  Cc1cnc(-c2ccc(C(F)(F)F)cc2)nc1Cn1ccc(C(F)(F)F)n1  class 1
4  Cc1cnc(-n2ccc(C(F)(F)F)n2)nc1C(=O)c1ccc(C(F)(F)F)cc1  class 0
5  Cc1cnc(-c2ccc(C(F)(F)F)cc2)nc1Cn1cc(Br)cn1  class 0
6  Cc1cnc(-c2ccc(C(F)(F)F)cc2)nc1Cn1ccc(C#N)n1  class 0
7  Cc1cnc(-c2ccc(C(F)(F)F)cc2)nc1Cc1cccc(C(F)(F)F)c1  class 1
8  Cc1cnc(-n2ccc(C(F)(F)F)n2)nc1C(=O)c1cccc(OC(F)(F)F)c1  class 0
9  Cc1cnc(-c2ccc(C(F)(F)F)cc2)nc1Cn1cnc(C(F)(F)F)c1  class 0
